test_summary: chemical genetic growth profiling, strain panel (AID 1159580);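 also: tested at 20 µM; growth read once vehicle control cultures reached saturation at 30 °C; 1 = growth at the plate median or of vehicle wells; lower values mean less growth of the strain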
recorded_conditions: S. cerevisiae deletion strains, growth OD, locus YDR101C, strain arx1, stronger effect = lower value
The whole screen tested about 5,500 compounds, of which about 2,000 (36%) were called active. Not shown: some 18% with an inconclusive outcome. This is one part of the list.
Hi there, I'd appreciate the recorded normalized growth for every entry that follows.
Kindly provide the number alone.

Any idea what normalized growth was measured for `Cc1c(C(N)=O)cc([N+](=O)[O-])cc1[N+](=O)[O-]` ? 1

Then `CC(=O)Oc1ccccc1C(=O)Oc1ccccc1C(=O)O` ? 0.994

Proceed to `NC(=O)c1ccc([N+](=O)[O-])cc1Cl` 0.991

How about this molecule: CCC(=O)OCC(=O)[C@@]1(OC(=O)CC)[C@@H](C)CC2C3CCC4=CC(=O)C=C[C@]4(C)C3(F)[C@@H](O)C[C@@]21C (stereo partly specified) 0.948

Field entry: C[C@@H]1CC[C@@]23CCC4(C)[C@@](C=CC5[C@@]6(C)CC[C@H](O)C(C)(C)C6CC[C@]54C)(OC2=O)C3[C@H]1C (stereo partly specified) 1.03

Likewise for CCC(=O)OCC(=O)C1(OC(=O)CC)C(C)CC2C3CCC4=CC(=O)C=CC4(C)C3(Cl)C(O)CC21C (stereo unspecified) ? 0.969

Further, for CCCCC(=O)O[C@]1(C(=O)CO)[C@@H](C)CC2C3CCC4=CC(=O)C=C[C@]4(C)[C@@]3(F)C(O)C[C@@]21C (stereo partly specified) ? 0.998

Try CCC(=O)O[C@]1(C(=O)CCl)[C@@H](C)CC2C3CCC4=CC(=O)C=C[C@]4(C)[C@@]3(F)[C@@H](O)C[C@@]21C (stereo partly specified) next. 1.01

Same read-out for `NC(=O)c1cc([N+](=O)[O-])cc([N+](=O)[O-])c1` ? 0.982

Another molecule to check: `O=C(Oc1ccccc1C(=O)O)c1ccccc1O` 0.944

Please do the same for COC(=O)CC1C(C)(C)C(OC(C)=O)[C@@H]2[C@@H](OC(C)=O)[C@]34O[C@@]2(O)[C@]1(C)C3CC[C@]1(C)C4=CC(=O)O[C@H]1c1ccoc1 (stereo partly specified) as well. 0.975

---

For each entry below, report its normalized growth value.
test_summary: chemical genetic growth profiling, strain panel (AID 1159580);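 also: tested at 20 µM; growth read once vehicle control cultures reached saturation at 30 °C; 1 = growth at the plate median or of vehicle wells; lower values mean less growth of the strain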
recorded_conditions: S. cerevisiae deletion strains, growth OD, locus YML120C, strain ndi1, stronger effect = lower value
Out of some 5,500 compounds screened, about 2,000 (36%) were called active. Inconclusive results (about 18%) are left out. The list shows a part of the results.
Could you respond with only the numeric value?

Need normalized growth of CO[C@H]1[C@@H](O)[C@@H](C)O[C@H](O[C@H]2CCC3(C)C4CCC5(C)[C@@H](C6=CC(=O)OC6)CC[C@]5(O)[C@@H]4CC[C@]3(O)C2)[C@@H]1O (some centres undefined) , thanks. 1.01

What do we get for `CN(C)C(=O)C(CCN1CCC(O)(c2ccc(Cl)cc2)CC1)(c1ccccc1)c1ccccc1` ? 0.993

Also CCC(=O)O[C@]1(C(=O)CCl)[C@@H](C)CC2C3CCC4=CC(=O)C=C[C@]4(C)[C@@]3(F)[C@@H](O)C[C@@]21C (some centres undefined) ? 1

What do we get for `O=C(CCCN1CCC2(CC1)C(=O)NCN2c1ccccc1)c1ccc(F)cc1` ? 0.984
